system tested: Estrogen-related receptor gamma (Homo sapiens)
Sequence (whole entry): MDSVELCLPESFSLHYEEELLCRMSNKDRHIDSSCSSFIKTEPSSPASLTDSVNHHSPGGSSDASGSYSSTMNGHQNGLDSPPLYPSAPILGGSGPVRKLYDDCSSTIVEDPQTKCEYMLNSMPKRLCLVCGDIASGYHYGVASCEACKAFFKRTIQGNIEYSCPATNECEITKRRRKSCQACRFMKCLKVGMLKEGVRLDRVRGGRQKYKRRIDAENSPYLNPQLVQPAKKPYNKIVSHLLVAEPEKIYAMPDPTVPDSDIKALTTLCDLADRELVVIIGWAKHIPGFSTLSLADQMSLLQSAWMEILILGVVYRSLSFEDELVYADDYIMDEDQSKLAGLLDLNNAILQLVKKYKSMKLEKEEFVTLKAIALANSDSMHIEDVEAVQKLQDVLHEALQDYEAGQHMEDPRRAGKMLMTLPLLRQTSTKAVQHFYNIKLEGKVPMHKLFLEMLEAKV
experimental details: Effect on interaction between ERRgamma ligand binding domain and RIP140 by FRET assay
Calls of active or inactive are those of the source. The rule behind the calls is not given here.

query smiles	system tested	Activity
C=C(C)CNC(=O)c1ccc(O)cc1	Estrogen-related receptor gamma (Homo sapiens)	inactive
CC(C)/C=N/NC(=O)c1ccc(O)cc1	Estrogen-related receptor gamma (Homo sapiens)	inactive
CCCCC/C=N/NC(=O)c1ccc(O)cc1	Estrogen-related receptor gamma (Homo sapiens)	inactive

---

system tested: Steroid hormone receptor ERR1 (Homo sapiens) (UniProt P11474)
Sequence (P11474 whole entry): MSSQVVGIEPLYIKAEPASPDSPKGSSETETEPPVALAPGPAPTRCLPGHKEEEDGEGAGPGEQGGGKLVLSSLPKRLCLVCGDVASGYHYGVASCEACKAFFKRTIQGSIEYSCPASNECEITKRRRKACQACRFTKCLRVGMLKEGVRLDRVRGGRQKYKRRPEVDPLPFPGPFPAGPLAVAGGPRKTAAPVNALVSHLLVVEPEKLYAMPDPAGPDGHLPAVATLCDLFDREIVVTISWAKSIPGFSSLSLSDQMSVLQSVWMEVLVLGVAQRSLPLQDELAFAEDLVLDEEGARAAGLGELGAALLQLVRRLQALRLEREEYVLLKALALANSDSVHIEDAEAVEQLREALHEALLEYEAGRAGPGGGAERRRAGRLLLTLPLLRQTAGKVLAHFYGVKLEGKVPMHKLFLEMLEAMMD
experimental details: Activity at human ERRalpha expressed in HeLa cells assessed as estrogen response element activation at 50 uM after 24 ro 30 hrs by luciferase reporter gene assay
Format: cell-based
The source made the active and inactive calls. The rule behind the calls is not given here.
measured parameter: Activity

compound	system tested	value observed
CC(C)CCNC(=O)c1ccc(O)cc1	Steroid hormone receptor ERR1 (Homo sapiens) (UniProt P11474)	inactive
CCC(C)/C=N/NC(=O)c1ccc(O)cc1 (stereo not drawn)	Steroid hormone receptor ERR1 (Homo sapiens) (UniProt P11474)	inactive
CCNC(=O)c1ccc(O)cc1	Steroid hormone receptor ERR1 (Homo sapiens) (UniProt P11474)	inactive

---

system tested: Steroid hormone receptor ERR1 (Homo sapiens) (UniProt P11474)
experimental details: Activity at human ERRalpha expressed in HeLa cells assessed as estrogen response element activation at 50 uM after 24 ro 30 hrs by luciferase reporter gene assay
Assay type: cell-based
The source made the active and inactive calls. The rule behind the calls is not given here.

compound	Activity
C=C(C)CNC(=O)c1ccc(O)cc1	inactive
CCCNC(=O)c1ccc(O)cc1	inactive
CC(C)NC(=O)c1ccc(O)cc1	inactive
C=C(/C=N/NC(=O)c1ccc(O)cc1)CC	inactive
CC(C)(C)CNC(=O)c1ccc(O)cc1	inactive
CC(C)/C=N/NC(=O)c1ccc(O)cc1	inactive
C=CCC/C=N/NC(=O)c1ccc(O)cc1	inactive
CCCCC/C=N/NC(=O)c1ccc(O)cc1	inactive
CCC(C)C(C)/C=N/NC(=O)c1ccc(O)cc1 (stereo not given)	inactive
CC/C=N/NC(=O)c1ccc(O)cc1	inactive
CC(C)CNC(=O)c1ccc(O)cc1	inactive
CCCCNC(=O)c1ccc(O)cc1	inactive
NC(=O)c1ccc(O)cc1	inactive
CCCCCNC(=O)c1ccc(O)cc1	inactive
CNC(=O)c1ccc(O)cc1	inactive
